# test-details: physchem
# Type: physicochemical
# stated-conditions: solid, 75% rh
Entries and their remaining at 192 h
recorded-endpoint: remaining at 192 h (%)

[[record]]
compound = "COc1cc(C[S+]([O-])c2nc3nc(OC(C)C)ccc3[nH]2)ncc1C (stereo not drawn)"
quantitative_result = 90

[[record]]
compound = "COc1cc(C[S+]([O-])c2nc3nc(OCC4CC4)ccc3[nH]2)ncc1C (stereo not drawn)"
quantitative_result = 88

[[record]]
compound = "CCCCCCCOc1ccc2[nH]c([S+]([O-])Cc3ncc(C)cc3C)nc2n1 (stereo not drawn)"
quantitative_result = 89

[[record]]
compound = "Cc1cnc(C[S+]([O-])c2nc3nc(OC(C)C)ccc3[nH]2)c(C)c1 (stereo not drawn)"
quantitative_result = 92

[[record]]
compound = "COc1c(C)cnc(C[S+]([O-])c2nc3nc(OCC(F)(F)F)ccc3[nH]2)c1C (stereo not drawn)"
quantitative_result = 92

[[record]]
compound = "COc1ccnc(C[S+]([O-])c2nc3nc(OCC(C)C)ccc3[nH]2)c1 (stereo not drawn)"
quantitative_result = 57

[[record]]
compound = "Cc1cnc(C[S+]([O-])c2nc3nc(OCCC(C)C)ccc3[nH]2)c(C)c1 (stereo not drawn)"
quantitative_result = 76

[[record]]
compound = "COc1c(C)cnc(C[S+]([O-])c2nc3ncc(Br)cc3[nH]2)c1C (stereo not drawn) [Compound α, reference compound]"
quantitative_result = 0

[[record]]
compound = "COc1ccc2[nH]c([S+]([O-])Cc3ncc(C)c(C)c3C)nc2n1 (stereo not drawn)"
quantitative_result = 99

[[record]]
compound = "COc1c(C)cnc(C[S+]([O-])c2nc3ncc(OCCCC4CCCC4)cc3[nH]2)c1C (stereo not drawn)"
quantitative_result = 68

[[record]]
compound = "CCCCOc1ccc2[nH]c([S+]([O-])Cc3ncc(C)c(C)c3C)nc2n1 (stereo not drawn)"
quantitative_result = 76

[[record]]
compound = "COc1ccc2[nH]c([S+]([O-])Cc3ncc(C)cc3C)nc2n1 (stereo not drawn)"
quantitative_result = 98

[[record]]
compound = "COc1c(C)cnc(C[S+]([O-])c2nc3nc(OC(C)C)ccc3[nH]2)c1C (stereo not drawn)"
quantitative_result = 87

[[record]]
compound = "COc1cc(C[S+]([O-])c2nc3nccc(OC)c3[nH]2)ncc1C (stereo not drawn)"
quantitative_result = 53

[[record]]
compound = "CCOc1ccc2[nH]c([S+]([O-])Cc3ncc(C)c(C)c3C)nc2n1 (stereo not drawn)"
quantitative_result = 96

